System: isolated rat left atria
Test: Pharmacological activation of spontaneous tachycardic activity (STA): calcium-loading agents with or without 2-APB
Settings: mg force per g atrial wet weight following a 10 min exposure to the agent
Experimental: Male Sprague-Dawley rats (325-400 g) were anesthetized with intra-peritoneal pentobarbital (0.1 g/kg). Their right and left atria were isolated, superfused at 30° C. in Krebs-Henseleit buffer, and nearly isometric forces of contraction were measured from these muscles (Wolkowicz et al., 2002). 2-APB was prepared as a 150 mM dimethyl sulfoxide stock. […] Left atrial contraction and relaxation times were recorded at these five times, the pacing stimulus was stopped and rates of SMA were recorded. […]
Marks after values point to notes of the source that are not given here.
property: Force Post

Example entries and their recorded answers appear below.
compound: COC(=O)c1c(C)[nH]c(C)c1C(=O)c1ccccc1Cc1ccccc1 [FPL-64176]
Force Post: 68* mg/gww

compound: CC(C)NCC(O)c1ccc(O)c(O)c1 (stereo not shown) [isoproterenol]
Force Post: 104* mg/gww

compound: C=C[C@@]1(C)CC(=O)[C@]2(O)[C@@]3(C)[C@@H](O)CCC(C)(C)[C@@H]3[C@H](O)[C@H](OC(C)=O)[C@@]2(C)O1 [forskolin]
Force Post: 62* mg/gww

Enquiry: Can you look up the measured Force Post of COC(=O)C1=C(C)NC(C)=C([N+](=O)[O-])[C@H]1c1ccccc1C(F)(F)F [BayK 8644] for me?
Return: 83* mg/gww

----------
tested on: rat left atria; test: tissue or blood; settings: 5 min, read-out: IC50 for suppression of triggered ectopic contractions induced by ATX II
pIC50: −log10 of the molar value. Structures can show the parent of a compound that is named as a salt.
property: pIC50

Enquiry: Can you look up the measured pIC50 of COc1ccc(CCCOC(Cn2ccnc2)c2ccc(OC)cc2)cc1 (stereo not shown) [SKF-96365, hydrochloride] for me?
Return: ~4.92
